assay.info: Serum protease stability in 10% fetal calf serum (RP-HPLC)
Assay type: in vitro ADME
test.context: calf (bovine), 10% fetal calf serum; 2 h; 10% FCS, pH 7.3; read-out: % residual peptide ± SD

{"compound": "N[C@H](CCC(=O)O)C(=O)N[C@@H](CSCc1ccccc1)C(=O)N[C@@H](CC1CCCCC1)C(=O)NCCCC[C@H](NC(=O)[C@H](CC1CCCCC1)NC(=O)[C@H](CSCc1ccccc1)NC(=O)[C@H](N)CCC(=O)O)C(=O)NCCCC[C@H](NC(=O)[C@H](CCCCNC(=O)[C@H](CC1CCCCC1)NC(=O)[C@H](CSCc1ccccc1)NC(=O)[C@H](N)CCC(=O)O)NC(=O)[C@H](CC1CCCCC1)NC(=O)[C@H](CSCc1ccccc1)NC(=O)[C@H](N)CCC(=O)O)C(=O)N[C@H](CS)C(=O)O [iVR1-Cys]", "remaining at 2 h, 10 μmol/L, %": 99}

---

assay.info: Serum protease stability in 10% fetal calf serum (RP-HPLC)
Assay type: in vitro ADME
test.context: calf (bovine), 10% fetal calf serum; 1 h; 10% FCS, pH 7.3; read-out: % residual peptide ± SD

{"structure.string": "N[C@H](CCC(=O)O)C(=O)N[C@@H](CSCc1ccccc1)C(=O)N[C@@H](CC1CCCCC1)C(=O)NCCCC[C@H](NC(=O)[C@H](CC1CCCCC1)NC(=O)[C@H](CSCc1ccccc1)NC(=O)[C@H](N)CCC(=O)O)C(=O)NCCCC[C@H](NC(=O)[C@H](CCCCNC(=O)[C@H](CC1CCCCC1)NC(=O)[C@H](CSCc1ccccc1)NC(=O)[C@H](N)CCC(=O)O)NC(=O)[C@H](CC1CCCCC1)NC(=O)[C@H](CSCc1ccccc1)NC(=O)[C@H](N)CCC(=O)O)C(=O)N[C@H](CS)C(=O)O", "remaining at 1 h, 10 μmol/L": "100%"}
